The values you see were collected from patent US20220363667A1.

Entries and their IC50
# Study Target: UniProt O95180
# Sequence (O95180 whole entry): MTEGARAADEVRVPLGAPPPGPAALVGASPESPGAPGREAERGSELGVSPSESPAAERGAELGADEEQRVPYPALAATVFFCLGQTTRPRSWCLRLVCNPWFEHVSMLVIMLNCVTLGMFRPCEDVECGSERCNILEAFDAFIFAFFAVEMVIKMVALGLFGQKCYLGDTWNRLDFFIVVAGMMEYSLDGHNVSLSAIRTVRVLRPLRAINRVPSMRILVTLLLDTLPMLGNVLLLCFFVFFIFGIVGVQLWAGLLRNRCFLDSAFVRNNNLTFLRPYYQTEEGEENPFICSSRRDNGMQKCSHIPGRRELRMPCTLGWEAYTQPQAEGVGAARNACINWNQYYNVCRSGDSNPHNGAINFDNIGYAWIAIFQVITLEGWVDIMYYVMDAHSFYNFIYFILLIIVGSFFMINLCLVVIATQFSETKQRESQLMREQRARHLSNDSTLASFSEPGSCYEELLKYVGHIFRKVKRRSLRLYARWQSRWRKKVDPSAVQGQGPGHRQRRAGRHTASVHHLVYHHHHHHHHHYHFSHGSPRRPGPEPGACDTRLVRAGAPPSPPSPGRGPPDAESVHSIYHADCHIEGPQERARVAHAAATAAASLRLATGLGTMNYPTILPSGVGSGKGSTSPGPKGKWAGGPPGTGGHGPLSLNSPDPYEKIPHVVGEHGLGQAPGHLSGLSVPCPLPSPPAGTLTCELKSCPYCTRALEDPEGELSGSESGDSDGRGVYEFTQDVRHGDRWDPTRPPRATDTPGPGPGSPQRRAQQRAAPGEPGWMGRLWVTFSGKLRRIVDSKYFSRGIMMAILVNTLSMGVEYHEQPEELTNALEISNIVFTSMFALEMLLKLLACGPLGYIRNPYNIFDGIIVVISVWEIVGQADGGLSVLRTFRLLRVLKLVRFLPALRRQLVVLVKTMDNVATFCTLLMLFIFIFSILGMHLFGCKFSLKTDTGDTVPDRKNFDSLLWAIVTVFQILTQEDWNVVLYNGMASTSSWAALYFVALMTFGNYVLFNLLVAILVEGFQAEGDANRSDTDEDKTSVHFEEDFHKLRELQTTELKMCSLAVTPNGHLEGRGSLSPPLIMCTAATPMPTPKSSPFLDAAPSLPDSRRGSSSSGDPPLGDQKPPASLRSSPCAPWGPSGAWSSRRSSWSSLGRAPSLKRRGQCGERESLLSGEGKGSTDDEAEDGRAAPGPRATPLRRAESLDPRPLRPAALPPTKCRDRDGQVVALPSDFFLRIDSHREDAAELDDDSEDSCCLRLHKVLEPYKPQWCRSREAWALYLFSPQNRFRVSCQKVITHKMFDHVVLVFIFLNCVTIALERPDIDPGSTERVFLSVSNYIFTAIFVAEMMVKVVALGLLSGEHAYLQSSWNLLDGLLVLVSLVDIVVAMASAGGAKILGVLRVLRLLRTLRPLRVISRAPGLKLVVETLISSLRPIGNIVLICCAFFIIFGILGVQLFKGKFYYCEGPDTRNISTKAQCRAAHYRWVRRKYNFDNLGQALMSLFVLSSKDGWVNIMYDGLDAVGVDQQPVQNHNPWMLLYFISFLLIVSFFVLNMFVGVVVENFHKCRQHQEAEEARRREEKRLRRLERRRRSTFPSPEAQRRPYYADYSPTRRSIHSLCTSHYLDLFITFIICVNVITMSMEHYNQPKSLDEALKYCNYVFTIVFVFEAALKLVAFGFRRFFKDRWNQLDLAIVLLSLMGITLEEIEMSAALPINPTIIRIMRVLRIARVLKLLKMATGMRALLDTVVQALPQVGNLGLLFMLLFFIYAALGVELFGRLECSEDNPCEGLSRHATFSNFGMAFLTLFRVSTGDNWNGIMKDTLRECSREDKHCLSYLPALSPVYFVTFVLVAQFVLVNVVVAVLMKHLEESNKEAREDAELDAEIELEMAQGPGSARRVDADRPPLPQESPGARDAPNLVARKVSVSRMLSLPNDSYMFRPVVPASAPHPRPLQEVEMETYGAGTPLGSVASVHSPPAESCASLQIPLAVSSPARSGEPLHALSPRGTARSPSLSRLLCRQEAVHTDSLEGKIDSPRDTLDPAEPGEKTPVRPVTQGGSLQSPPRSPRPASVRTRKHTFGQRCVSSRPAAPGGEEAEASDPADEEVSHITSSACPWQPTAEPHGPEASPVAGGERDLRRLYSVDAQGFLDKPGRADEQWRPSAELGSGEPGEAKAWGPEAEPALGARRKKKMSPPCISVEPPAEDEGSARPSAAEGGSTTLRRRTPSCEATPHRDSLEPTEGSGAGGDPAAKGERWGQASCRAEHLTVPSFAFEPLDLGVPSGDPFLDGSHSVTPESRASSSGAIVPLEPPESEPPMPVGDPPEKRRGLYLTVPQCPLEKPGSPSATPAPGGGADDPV
# Measurement Notes: T-type calcium blocking action: intracellular calcium concentration in cells steadily expressing human Cav3.2 channels
# Measurement Parameters: HEK293 cells steadily expressing human Cav3.2 channels; Fluo-4 AM fluorescence increase after KCl stimulus
The answer is to be given in nM; state only the numeric part.

Example entries and their recorded answers appear below.
Query: IC50; subject: `O=C(N[C@@H]1CCN(c2ccc(F)c(C(F)(F)F)c2)C1)[C@H]1C[C@@H]1c1ncc2ccccc2n1` 4400

Item N#Cc1ccc2[nH]c(C3CC3C(=O)N[C@@H]3CCN(c4ccc(C(F)(F)F)nc4)C3)nc2c1 (single isomer, unassigned) [Example 61B] has what recorded IC50? 2200

Given the compound NC(C(=O)N[C@@H]1CCN(c2cncc(C(F)(F)F)c2)C1)c1ccc(C2CC2)cc1 (stereo partly shown) [Example 137B] , what is its reported IC50? 820

We next turn to a different compound, shown below.
Given the compound `O=C(N[C@@H]1CCCN(c2cncc(C(F)(F)F)c2)C1)[C@H]1C[C@@H]1c1nc2ccccc2[nH]1` , what is its reported IC50? 190

====

# Tested on: SD rats
# Measurement Notes: Rat formalin test
# Format: in vivo
# Measurement Parameters: po, 30 mg/kg orally once, pain behavior time from 15 to 30 minutes after formalin administration vs vehicle group, read-out: Inhibition ratio (pain behavior inhibition ratio)
# Protocol: 30 mg/kg of a vehicle or a test substance was orally administrated to SD rats once, and according to the method described in McNamara C. […] Regarding the evaluation, the pain behavior inhibition ratio was determined from the pain behavior time of each test substance-administered group with respect to the pain behavior time of the vehicle-administered group for 15 minutes measured from 15 minutes to 30 minutes after the administration.
Listed next: entries and their corresponding inhibition in vivo at 30 mg/kg.

Guide cases for inhibition in vivo at 30 mg/kg, answers given:
Lab note: need inhibition in vivo at 30 mg/kg for O=C(Cc1ccc(C2CC2)cc1)N[C@H]1CN(c2cncc(C(F)(F)F)c2)C[C@@H]1O [Example 5] on SD rats, anyone have it? ≥ 20%

Requested read-out inhibition in vivo at 30 mg/kg, target or system SD rats, entry O=C(N[C@@H]1CCN(c2ccc(C(F)(F)F)nc2)C1)[C@H]1C[C@@H]1c1nc2ccccc2[nH]1 [Example 54] < 10%

Provide the documented inhibition in vivo at 30 mg/kg with SD rats as the system for Cn1ncc2cc(CC(=O)N[C@@H]3CCN(c4ccc(C(F)(F)F)nc4)C3)ccc21 [Example 144] ≥ 20%

GET /values?readout=inhibition in vivo at 30 mg/kg&system=SD rats&item= O=C(N[C@@H]1CCN(c2cncc(C(F)(F)F)c2)C1)[C@H]1C[C@@H]1c1nc2ccccc2[nH]1 [Example 71] < 10%

API: value(readout= inhibition in vivo at 30 mg/kg, system= SD rats, query= CC(C)c1ccc(CC(=O)N[C@@H]2CCN(c3nc(C(F)(F)F)cs3)C2)cc1 [Example 112] ) ≥ 20%

More entries:
Provide the documented inhibition in vivo at 30 mg/kg with SD rats as the system for N#Cc1ncc(N2CC[C@@H](NC(=O)Cc3ccc(C4CC4)cc3)C2)cc1C(F)(F)F [Example 12] 10 to 20%

What value of inhibition in vivo at 30 mg/kg on SD rats does CC(C)c1ccc(CC(=O)N[C@@H]2CCN(c3ccc(C(F)(F)F)nc3)C2)cc1 [Example 113] have? 10 to 20%

// fetch SD rats inhibition in vivo at 30 mg/kg for O=C(Cc1ccc(C(F)(F)F)cc1)N[C@@H]1CCN(c2cncc(C(F)(F)F)n2)C1 [Example 11] ≥ 20%

// fetch SD rats inhibition in vivo at 30 mg/kg for O=C(N[C@@H]1CCN(c2cncc(C(F)(F)F)c2)C1)C1CC1c1cc(Cl)cc(Cl)c1 (single isomer, unassigned) [Example 99A] < 10%

Lab request: please report inhibition in vivo at 30 mg/kg under test system SD rats for NC(C(=O)N[C@@H]1CCN(c2cncc(C(F)(F)F)c2)C1)c1ccc(C2CC2)cc1 (stereo partly shown) [Example 137] ≥ 20%

Item CC(C)c1ccc(CC(=O)NC2CCN(c3cncc(C(F)(F)F)c3)CC2)cc1 [Example 109] with SD rats - inhibition in vivo at 30 mg/kg? ≥ 20%

Could you share what inhibition in vivo at 30 mg/kg was measured for CC(C)c1ccc(CC(=O)N[C@@H]2CCN(c3cncc(C(F)(F)F)c3)C2)cc1 [Example 4] , tested on SD rats? ≥ 20%

GET /values?readout=inhibition in vivo at 30 mg/kg&system=SD rats&item= CC(C)c1ccc(CC(=O)NC2CN(c3cncc(C(F)(F)F)c3)C2)cc1 [Example 117] ≥ 20%

# get_value(readout= inhibition in vivo at 30 mg/kg, system= SD rats) for O=C(Cc1ccc(N2CCC(F)(F)C2)cc1)N[C@@H]1CCN(c2ccc(C(F)(F)F)nc2)C1 [Example 84] < 10%

Reported inhibition in vivo at 30 mg/kg for SD rats, given CC(C)(C(=O)N[C@@H]1CCN(c2cncc(C(F)(F)F)c2)C1)c1ccc(C2CC2)cc1 [Example 135] ? < 10%

Give inhibition in vivo at 30 mg/kg (SD rats) of the following molecule: O=C(Cc1ccc2ncccc2c1)N[C@@H]1CCN(c2cncc(C(F)(F)F)c2)C1 [Example 77] < 10%

Under SD rats: inhibition in vivo at 30 mg/kg value of O=C(Cc1ccc(C2CC2)cc1)N[C@H]1CN(c2nc(C(F)(F)F)cs2)CC12CC2 [Example 8] ? < 10%

Report inhibition in vivo at 30 mg/kg for O=C(Cc1ccc(N2CCOCC2)cc1)N[C@@H]1CCN(c2cncc(C(F)(F)F)c2)C1 [Example 181] tested on SD rats. ≥ 20%

# get_value(readout= inhibition in vivo at 30 mg/kg, system= SD rats) for O=C(Cc1ccc(C(F)(F)F)cc1F)N[C@@H]1CCN(c2cncc(C(F)(F)F)c2)C1 [Example 141] < 10%

Observed inhibition in vivo at 30 mg/kg on SD rats for O=C(Cc1ccc(C2CC2)cc1)N[C@@H]1CCN(c2ccc(C(F)(F)F)nc2)C1 [Example 121] , please. < 10%

// lookup inhibition in vivo at 30 mg/kg | system=SD rats | key= O=C(Cc1ccc(C(F)(F)F)cc1)N[C@@H]1CCN(c2cncc(C(F)(F)F)c2)C1 [Example 123] ≥ 20%

# query: inhibition in vivo at 30 mg/kg | item O=C(Cc1ccc2cc[nH]c2c1)N[C@@H]1CCN(c2ccc(C(F)(F)F)nc2)C1 [Example 85] | system: SD rats < 10%
